Source: patent US20100004250A1

pIC50: −log10 of the molar value.
Record: pIC50 reported on PLK1 (Homo sapiens).
Sequence (P53350 whole entry): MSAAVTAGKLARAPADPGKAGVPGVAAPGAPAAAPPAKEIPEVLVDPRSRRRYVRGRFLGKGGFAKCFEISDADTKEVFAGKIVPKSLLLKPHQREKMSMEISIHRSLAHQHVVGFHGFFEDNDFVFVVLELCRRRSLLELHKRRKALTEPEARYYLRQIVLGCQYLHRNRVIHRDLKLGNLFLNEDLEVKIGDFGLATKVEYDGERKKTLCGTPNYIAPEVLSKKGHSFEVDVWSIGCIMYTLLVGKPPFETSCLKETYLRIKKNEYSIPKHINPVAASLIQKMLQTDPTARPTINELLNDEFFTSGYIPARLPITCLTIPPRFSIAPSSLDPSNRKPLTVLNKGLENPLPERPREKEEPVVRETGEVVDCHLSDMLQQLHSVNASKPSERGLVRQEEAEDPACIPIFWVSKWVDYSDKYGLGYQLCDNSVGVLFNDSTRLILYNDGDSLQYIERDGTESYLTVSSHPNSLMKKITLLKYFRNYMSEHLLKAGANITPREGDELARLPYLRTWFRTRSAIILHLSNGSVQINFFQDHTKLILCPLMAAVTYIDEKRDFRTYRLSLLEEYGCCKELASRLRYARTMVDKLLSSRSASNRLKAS
endpoint-name: pIC50

# structure-string, obs-value
measured = [
    ("CC[C@@H]1C(=O)N(C)c2cnc(Nc3ccc(C(=O)NC4CCN(CCCC(=O)N[C@@H](C(=O)O)c5ccccc5)CC4)cc3OC)nc2N1C1CCCC1", "> 7.00"),
    ("CC[C@@H]1C(=O)N(C)c2cnc(Nc3ccc(C(=O)NC4CCN(CCNC(=O)N[C@H](C(=O)OC5CCCC5)C5CCCCC5)CC4)cc3OC)nc2N1C1CCCC1", "6.30 to 7.00"),
    ("CC[C@@H]1C(=O)N(C)c2cnc(Nc3ccc(C(=O)NC4CCN(CCOC(=O)N[C@@H](CC(C)C)C(=O)OC5CCCC5)CC4)cc3OC)nc2N1C1CCCC1", "> 7.00"),
    ("CC[C@@H]1C(=O)N(C)c2cnc(Nc3ccc(C(=O)NC4CCN(CC(=O)N[C@@H](CC(C)C)C(=O)OC5CCCC5)CC4)cc3OC)nc2N1C1CCCC1", "6.30 to 7.00"),
    ("CC[C@@H]1C(=O)N(C)c2cnc(Nc3ccc(C(=O)Nc4ccc(CCCC(=O)N[C@@H](CC(C)C)C(=O)O)cc4)cc3OC)nc2N1C1CCCC1", "> 7.00"),
    ("CC[C@@H]1C(=O)N(C)c2cnc(Nc3ccc(C(=O)N[C@H]4CC[C@@H](CCC(=O)N[C@@H](CC(C)C)C(=O)OC5CCCC5)CC4)cc3OC)nc2N1C1CCCC1", "> 7.00"),
]
